Items are presented alongside their recorded Duration of local anesthesia.
# Test system: male SD rats
# Measurement protocol: Subcutaneous infiltration anesthesia in rats (acupuncture stimulation of back skin)
# Format: in vivo, rat
# Experimental context: 0.15 + 0.35% bupivacaine hydrochloride, 0.4 mL subcutaneous

Compound: CC[N+](CC)(CC)CC(=O)Nc1c(C)cc(O)cc1C [Compound 1]
Duration of local anesthesia: 24 to 30 h
//
Compound: CC[N+](CC)(CC)CC(=O)Nc1c(C)cc(OC(C)=O)cc1C [Compound 3]
Duration of local anesthesia: 18 to 24 h
//
Compound: CC[N+](CC)(CC)CC(=O)Nc1c(C)cc(OC(C)C)cc1C [Compound 15]
Duration of local anesthesia: 36 to 42 h
//
Compound: CC[N+](CC)(CC)CC(=O)Nc1c(C)cc(N)cc1C [Compound 7]
Duration of local anesthesia: 4 to 6 h
//
Compound: CCCCCCOc1cc(C)c(NC(=O)C[N+](CC)(CC)CC)c(C)c1 [Compound 17]
Duration of local anesthesia: 54 to 72 h

====

# System: male SD rats
# Measurement protocol: Subcutaneous infiltration anesthesia in rats (acupuncture stimulation of back skin)
# Format: in vivo, rat
# Experimental context: 0.5%, 0.4 mL subcutaneous, rat back

Molecule: CCCCCCOc1cc(C)c(NC(=O)C[N+](CC)(CC)CC)c(C)c1 [Compound 17]
Duration of local anesthesia: 54 to 60 h

Molecule: C=CC[N+]1(CC(=O)Nc2c(C)cc(OC(=O)CCC)cc2C)CCCCC1 [Compound 26]
Duration of local anesthesia: 54 to 66 h

Molecule: CC[N+](CC)(CC)CC(=O)Nc1c(C)cc(OC(C)C)cc1C [Compound 15]
Duration of local anesthesia: 42 to 54 h

Molecule: CC[N+](CC)(CCO)CC(=O)Nc1c(C)cc(OC(=O)CCCc2ccc(Cl)cc2)cc1C [Compound 31]
Duration of local anesthesia: 36 to 54 h

Molecule: CCN(CCCCCOc1cc(C)c(NC(=O)C[N+](CC)(CC)CC)c(C)c1)CC(=O)Nc1c(C)cccc1C [Compound 45]
Duration of local anesthesia: 42 to 60 h

Molecule: CCCC(=O)Oc1cc(C)c(NC(=O)C2CCCC[N+]2(C)CCC)c(C)c1 (stereo not drawn) [Compound 33]
Duration of local anesthesia: 60 to 72 h

====

# Test system: left sciatic nerve of rats
# Measurement protocol: Sciatic nerve blocking experiment in rats (Von Frey filaments 60 g)
# Format: in vivo, rat
# Experimental context: 1.0%, 0.2 mL near left sciatic nerve
Items are presented alongside their recorded Duration of local anesthesia.
Measurement label: Duration of local anesthesia

Molecule: CC[N+](CC)(CC)CC(=O)Nc1c(C)cc(OC(C)=O)cc1C [Compound 3]
Measurement label: Duration of local anesthesia
Val: 18 to 30 h
--
Molecule: CC[N+](CC)(CC)CC(=O)Nc1c(C)cc(OC(=O)CCCCCCCN2CCCCC2C(=O)Nc2c(C)cccc2C)cc1C (stereo not drawn) [Compound 50]
Measurement label: Duration of local anesthesia
Val: 36 to 48 h
--
Molecule: CCCC(=O)Oc1cc(C)c(NC(=O)C2CCCC[N+]2(C)CCC)c(C)c1 (stereo not drawn) [Compound 33]
Measurement label: Duration of local anesthesia
Val: 48 to 66 h

====

# Test system: left sciatic nerve of rats
# Measurement protocol: Sciatic nerve blocking experiment in rats (Von Frey filaments 60 g)
# Type: in vivo, rat
# Experimental context: 0.5%, 0.2 mL near left sciatic nerve

Molecule: CCCCCOC(=O)Oc1cc(C)c(NC(=O)C[N+](CC)(CC)CC)c(C)c1
Duration of local anesthesia: 12 to 24 h
//
Molecule: CC[N+](CC)(CCO)CC(=O)Nc1c(C)cc(OCCCCN2CCCCC2C(=O)Nc2c(C)cccc2C)cc1C (centres unmarked)
Duration of local anesthesia: 30 to 36 h
//
Molecule: C=CC[N+]1(CC(=O)Nc2c(C)cc(OC(=O)CCC)cc2C)CCCCC1
Duration of local anesthesia: 24 to 30 h
//
Molecule: CCCCCCOc1cc(C)c(NC(=O)C[N+](CC)(CC)CC)c(C)c1
Duration of local anesthesia: 24 to 42 h
//
Molecule: CC[N+](CC)(CC)CC(=O)Nc1c(C)cc(OC(C)=O)cc1C
Duration of local anesthesia: 10 to 12 h
